Data credit: patent US20210220408A1

# targetUnderTest: aryl hydrocarbon receptor (AHR) (Homo sapiens)
# assayOverview: DRE-Luciferase reporter high-throughput screen (AHR antagonist, VAF347-activated)
propertyLabel: IC50

Previously resolved entries follow.
| molecule | IC50 |
| --- | --- |
| CCN(C(=O)C1CC1)c1nc(-c2ccc(OC)cc2)cs1 [58A] | 1 to 2 µM |
| O=c1[nH]c(NC2CCCC2)nc2nccc(-c3cccs3)c12 | 0.2 to 0.5 µM |
| COc1ccc(C(=O)Nc2cc(C)cc(C)n2)cc1 | 1 to 2 µM |
| N#Cc1ccc(C(=O)Nc2ccc(Cl)c(C#N)c2)cc1 | 1 to 2 µM |

Would you kindly look at the next entry?
q: Specify IC50 for O=C(NCCn1nc(-c2cccs2)ccc1=O)c1cccs1 [194A] and stop.
a: > 2 µM

* * *

# System: mobilized peripheral blood CD34+ cells
# assayOverview: CD34+ expansion assay
# Format: cell-based
# experimentalParameters: Homo sapiens; read-out: CD34 Frequency EC50
pEC50: −log10 of the molar value.
Attribute: pEC50

| molSmiles | pEC50 |
| --- | --- |
| O=C(Nc1ccc(N2CCCC2)nc1)c1cc2c(F)cccc2s1 | 6.00 to 6.30 |

q: Give the value of pEC50 reported for the following: Nc1c(-c2nc(-c3ccccc3)cs2)nnn1-c1ccc(F)cc1
a: 6.00 to 6.30

q: Give pEC50 for the following compound: COc1ccc(-n2nnc(C(=O)Nc3ccccc3C(F)(F)F)c2N)cc1
a: 5.30 to 6.00

q: Tell me pEC50 reported for Cc1noc(C)c1C(=O)Nc1ccc(-c2nc3ccccc3o2)cc1
a: 6.00 to 6.30

* * *

Listed next: entries and their corresponding IC50.
# targetUnderTest: UniProtKB P35869
# assayOverview: DRE-Luciferase reporter high-throughput screen (AHR antagonist, VAF347-activated)

q: Tell me measured IC50 for COc1ccnc(N2CCN(c3ccc(Cl)cc3)CC2)c1C#N [compound 80] please.
a: < 200 nM

* * *

Item-by-item account of EC50
# Test system: mobilized peripheral blood CD34+ cells
# assayOverview: CD34+ expansion assay
# Type: cell-based
# experimentalParameters: Homo sapiens; read-out: CD34 Frequency EC50

| compound | targetUnderTest | EC50 |
| --- | --- | --- |
| FC(F)(F)Oc1ccc(-c2nnc(-c3cccnc3)o2)cc1 [compound 123] | mobilized peripheral blood CD34+ cells | 1000 to 5000 nM |
| O=c1[nH]c2ccc(-c3csc(-c4ccccn4)n3)cc2[nH]1 [compound 58] | mobilized peripheral blood CD34+ cells | ≥ 5000 nM |
| Cc1nn2c(C)c(C(=O)OC(C)C)nnc2c1-c1ccccc1 [compound 106] | mobilized peripheral blood CD34+ cells | 500 to 1000 nM |

Query compound follows.
q: Given CC(C)n1nnc2cc(C(=O)Nc3ccc(Cl)cc3)ccc21 [compound 17] , respond with its EC50.
a: < 500 nM

* * *

# targetUnderTest: aryl hydrocarbon receptor (AHR) (Homo sapiens)
# assayOverview: DRE-Luciferase reporter high-throughput screen (AHR antagonist, VAF347-activated)
pIC50: −log10 of the molar value.
propertyLabel: pIC50

Please review the entries below; each comes with its answer.
| molecule | targetUnderTest | pIC50 |
| --- | --- | --- |
| CCC(C)C(=O)Nc1ccc(-c2nnc(-c3ccccc3C)o2)cc1 (stereo not shown) [83B] | aryl hydrocarbon receptor (AHR) (Homo sapiens) | 6.00 to 6.30 |
| Cc1c(-c2cc(NC(=O)C3CC3)[nH]n2)sc2ccc(Cl)cc12 [105A] | aryl hydrocarbon receptor (AHR) (Homo sapiens) | < 5.70 |
| CCOC(=O)c1sc(NC(=O)c2cn3ccccc3n2)cc1C [compound 40] | aryl hydrocarbon receptor (AHR) (Homo sapiens) | > 6.70 |

q: # return recorded pIC50 for entry Cn1c(CCC(=O)OCC(=O)N2c3ccccc3CCc3ccccc32)nc2ccccc2c1=O [127B]
a: < 5.70

q: Please list pIC50 recorded for the molecule CCCN(C(=O)C1CC1)c1nnc(-c2ccc(Cl)cc2)s1 [144A]
a: 5.70 to 6.00

q: Specify pIC50 for O=c1cc(NCc2cccc(C(F)(F)F)c2)nc2ccc(Cl)cn12 [167A] and stop.
a: < 5.70

q: Specify reported pIC50 for the molecule shown: Cc1cccc(NC(=O)c2ccc3c(c2)CC(C)O3)c1 (stereo not shown) [38A]
a: < 5.70

* * *

# targetUnderTest: aryl hydrocarbon receptor (AHR) (Homo sapiens, UniProt P35869)
# Sequence (P35869 11-848): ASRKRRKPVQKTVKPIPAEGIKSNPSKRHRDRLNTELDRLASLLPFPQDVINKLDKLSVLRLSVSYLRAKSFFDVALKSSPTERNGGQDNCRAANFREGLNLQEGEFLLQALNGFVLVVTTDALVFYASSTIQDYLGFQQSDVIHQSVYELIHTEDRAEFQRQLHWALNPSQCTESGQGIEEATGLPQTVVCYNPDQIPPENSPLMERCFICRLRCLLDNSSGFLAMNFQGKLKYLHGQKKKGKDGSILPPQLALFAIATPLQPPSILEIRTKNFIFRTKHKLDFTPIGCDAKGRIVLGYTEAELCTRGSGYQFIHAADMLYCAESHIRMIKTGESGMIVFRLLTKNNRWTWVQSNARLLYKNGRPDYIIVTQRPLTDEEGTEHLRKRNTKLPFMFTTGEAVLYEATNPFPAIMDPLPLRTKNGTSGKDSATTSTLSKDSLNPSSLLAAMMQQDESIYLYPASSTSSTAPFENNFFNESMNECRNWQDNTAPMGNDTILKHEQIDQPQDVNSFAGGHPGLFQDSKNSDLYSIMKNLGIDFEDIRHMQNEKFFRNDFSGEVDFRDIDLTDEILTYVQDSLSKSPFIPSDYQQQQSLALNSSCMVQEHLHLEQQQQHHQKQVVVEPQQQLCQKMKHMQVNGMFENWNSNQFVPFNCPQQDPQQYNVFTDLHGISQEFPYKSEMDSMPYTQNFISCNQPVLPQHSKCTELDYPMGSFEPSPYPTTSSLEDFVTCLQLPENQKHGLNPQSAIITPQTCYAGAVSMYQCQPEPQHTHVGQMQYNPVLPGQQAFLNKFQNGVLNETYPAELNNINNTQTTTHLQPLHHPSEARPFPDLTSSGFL
# assayOverview: DRE-Luciferase reporter high-throughput screen (AHR antagonist, VAF347-activated)
pIC50: −log10 of the molar value.
propertyLabel: pIC50

Please review the following examples before continuing.
| compound | propertyLabel | result |
| --- | --- | --- |
| COc1cccc(Cn2c3c(cc(NC(=O)c4ccc(C)cc4)c2=O)C(=O)CCC3)c1 [44A] | pIC50 | 5.70 to 6.00 |
| N#Cc1cnc2c(-c3ccc(Cl)cc3)cnn2c1 [70B] | pIC50 | 6.00 to 6.30 |
| Cc1ccc2[nH]c(SCc3ccccc3C)nc2c1 [64B] | pIC50 | 6.00 to 6.30 |
| Cn1cnnc1Sc1ccc(NC(=O)c2cc(Br)ccc2F)cc1 [compound 7] | pIC50 | 6.00 to 6.30 |

q: Return pIC50 for the following compound: Cc1nc(NC(=O)c2cc(C(C)(C)C)n[nH]2)sc1SCC#N [34A]
a: < 5.70

q: Please report pIC50 for the following compound: c1cncc(-c2nnc3sc(-c4csc5c4CCCC5)nn23)c1 [99A]
a: 5.70 to 6.00

q: Tell us which pIC50 value is on record for CN(Cc1ccsc1)c1nc2ccccn2c1[N+](=O)[O-] [68B]
a: 5.70 to 6.00

q: Report pIC50, nothing else, for this compound: O=C(Nc1ccc(-c2cnc(C3CC3)o2)cc1)c1cccc(F)c1 [2A]
a: < 5.70

q: Using known records, supply pIC50 for CCOc1ccc(C(=O)Nc2ccccc2C(N)=O)cc1 [7B]
a: 5.70 to 6.00

* * *

# targetUnderTest: aryl hydrocarbon receptor (AHR) (Homo sapiens, UniProt P35869)
# assayOverview: DRE-Luciferase reporter high-throughput screen (AHR antagonist, VAF347-activated)
propertyLabel: IC50

| compound | targetUnderTest | propertyLabel | result |
| --- | --- | --- | --- |
| c1ccc2nc(SCc3nc4ccccc4[nH]3)ccc2c1 [65B] | aryl hydrocarbon receptor (AHR) (Homo sapiens, UniProt P35869) | IC50 | 1 to 2 µM |
| Cc1ccc2nc(-c3ccc(-c4ccccn4)s3)cn2c1 [compound 101] | aryl hydrocarbon receptor (AHR) (Homo sapiens, UniProt P35869) | IC50 | 0.5 to 1 µM |
| Cc1csc(-c2ccc(NC(=O)NCc3cc(C)on3)cc2)n1 [62A] | aryl hydrocarbon receptor (AHR) (Homo sapiens, UniProt P35869) | IC50 | > 2 µM |
| Cc1c(-c2nc(-c3ccc(C(C)(C)C)cc3)no2)n(C)oc1=O [87B] | aryl hydrocarbon receptor (AHR) (Homo sapiens, UniProt P35869) | IC50 | 0.2 to 0.5 µM |

q: Supply recorded IC50 for CCCn1cnc(-c2nc(C(=O)Nc3cc(C)ccc3C)c3ccccn23)c1 [46A] here.
a: 1 to 2 µM

q: Recall and state the measured IC50 for Nc1cnc(C(=O)c2ccc(Cl)cc2)s1 [66A] .
a: 1 to 2 µM

q: Give IC50 for the following compound: Cc1ccc(-c2csc(-c3ccncc3)n2)c(C)c1 [compound 52]
a: 0.5 to 1 µM

q: For the compound CCOc1ccc(-c2ccc(SCC)nn2)cc1 [90A] , give its reported IC50.
a: > 2 µM

q: For the compound CC1CN=C(N2CCN(c3nc4c(cc3C#N)CCC4)CC2)S1 (stereo not drawn) [76A] , report IC50.
a: 1 to 2 µM

q: For the compound Cc1c(C(=O)OC2CCCC2)[nH]c2c1C(=O)CCC2 [179A] , give its measured IC50 value.
a: > 2 µM

q: # return recorded IC50 for entry CS(=O)(=O)Nc1cccc(C(=O)Nc2cccc3cccnc23)c1 [36A]
a: 1 to 2 µM

q: Indicate the recorded IC50 value for this compound: O=C(Nc1ccc2ccccc2c1)c1cccc(NC(=O)C(F)(F)F)c1 [35A]
a: 1 to 2 µM

q: # return recorded IC50 for input CC(NC(=O)c1c(N)n(C)c2ccccc2c1=O)c1ccccc1 (stereo not drawn) [165A]
a: > 2 µM

q: State its IC50: COc1ccc(N2CCN(c3cc(C)nn4cnnc34)CC2)cc1 [74A]
a: > 2 µM

q: Give the reported value of IC50 for this record: O=[N+]([O-])c1cc(C(F)(F)F)ccc1Oc1ccc(-c2noc(-c3ccccc3F)n2)cc1 [compound 157]
a: 0.5 to 1 µM

q: Supply measured IC50 of Cc1ccc(N/N=C/c2ccc(-n3ccnc3)cc2)cc1Cl [compound 98] in your reply.
a: 0.5 to 1 µM

q: State, in one line, measured IC50 of CCOC(=O)c1c(C)[nH]c(-c2cn3ccccc3n2)c1C [compound 102]
a: 0.2 to 0.5 µM

q: Complete the entry with IC50 for COc1ccc([N+](=O)[O-])cc1-c1ccc(/C=N/Nc2ccccc2)o1 [44B]
a: 1 to 2 µM

q: Provide one value: measured IC50 of c1ccc(N2CCN(c3nc(N4CCCCC4)nc4nccnc34)CC2)cc1 [75A]
a: 1 to 2 µM

q: Give the reported value of IC50 for this record: COC(=O)c1cnn(-c2cc(Nc3c(F)cccc3F)ncn2)c1N [compound 86]
a: 0.2 to 0.5 µM

q: Note down IC50 recorded for Cc1ccc(OCc2nc(N)nc(N(C)C)n2)cc1C [51B]
a: 1 to 2 µM

q: Write down IC50 measured for item N#Cc1ccc(-c2csc(-c3ccsc3)n2)cc1 [33B]
a: 0.2 to 0.5 µM

q: Tell me IC50 reported for COc1ccc(OCc2nc(-c3cccc(F)c3)cs2)cc1 [34B]
a: 1 to 2 µM

q: Provide only the value of recorded IC50 for O=C(Nc1ccc(N2CCc3sccc3C2)nc1)c1cc(Br)c[nH]1 [32A]
a: 1 to 2 µM
